Target: T1, 4H3364-bA
T1 chain: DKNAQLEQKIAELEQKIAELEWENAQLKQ
Assay: two-hybrid library CCNG1;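 note: natural log of median RNA to DNA barcode read ratio; higher means stronger binding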
reportedEndpoint: interaction score

[[record]]
binder = "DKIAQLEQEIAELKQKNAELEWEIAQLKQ [4H2162-bA]"
reportedresult = -0.464


1. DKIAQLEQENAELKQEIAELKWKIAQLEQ [4H2253-bA]
2. DKNAQLEQKIAELEQKIAELEWENAQLKQ [4H3364-bA]
3. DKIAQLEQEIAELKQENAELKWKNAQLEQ [4H2143-bA]
Problem: Order the records so the highest interaction score appears first and the lowest last. Reply format: the labels, ordered as requested.
Result: 2, 3, 1
(2: 1.01, 3: -0.25, 1: -0.504)
